assay.details: Stability in simulated intestinal fluid
Format: in vitro ADME
experimental.setup: 2 μM, 37° C., pH 7.5
readout.kind: half-life (t1/2) in simulated intestinal fluid

{"molecule": "CCc1cc(OC)ccc1-c1ccc(CC(NC(=O)[C@H](CC(=O)O)NC(=O)[C@H](CO)NC(=O)[C@@H](NC(=O)C(C)(Cc2ccccc2F)NC(=O)[C@@H](NC(=O)CNC(=O)[C@H](CCC(N)=O)NC(=O)[C@H](CO)NC(=O)[C@@H](N)Cc2c[nH]cn2)[C@@H](C)O)[C@@H](C)O)C(=O)NC(Cc2ccc(-c3ccccc3C(F)(F)F)cc2)C(N)=O)cc1 (single isomer, unassigned)", "reported.result": "(6) h"}

###

assay.details: Stability in simulated intestinal fluid
Assay type: in vitro ADME
experimental.setup: 2 μM, 37° C., 24 h, pH 7.5
readout.kind: % degradation in 24 h when incubated with simulated intestinal fluid (%)
Write it as a number; the unit % goes unstated.

{"molecule": "CCc1cc(OC)ccc1-c1ccc(CC(NC(=O)[C@H](CC(=O)O)NC(=O)[C@H](CO)NC(=O)[C@@H](NC(=O)[C@H](Cc2ccccc2)NC(=O)[C@@H](NC(=O)CNC(=O)[C@H](CCC(N)=O)NC(=O)C2(NC(=O)[C@@H](N)Cc3c[nH]cn3)CC2)[C@@H](C)O)[C@@H](C)O)C(=O)NC(Cc2ccc(-c3ccccc3C(F)(F)F)cc2)C(N)=O)cc1 (single isomer, unassigned)", "unit.symbol": "%", "reported.result": "00"}
{"molecule": "CCc1cc(OC)ccc1-c1ccc(CC(NC(=O)[C@H](CC(=O)O)NC(=O)[C@H](CO)NC(=O)[C@@H](NC(=O)C(C)(Cc2ccccc2F)NC(=O)[C@@H](NC(=O)CNC(=O)[C@H](CCC(N)=O)NC(=O)C2(NC(=O)[C@@H](N)Cc3c[nH]cn3)CC2)[C@@H](C)O)[C@@H](C)O)C(=O)NC(Cc2ccc(-c3ccccc3C(F)(F)F)cc2)C(N)=O)cc1 (single isomer, unassigned)", "unit.symbol": "%", "reported.result": "00"}
{"molecule": "CCc1cc(OC)ccc1-c1ccc(CC(NC(=O)[C@H](CC(=O)O)NC(=O)[C@H](CO)NC(=O)[C@@H](NC(=O)[C@H](Cc2ccccc2)NC(=O)[C@@H](NC(=O)CNC(=O)[C@H](CCC(N)=O)NC(=O)[C@H](CO)NC(=O)[C@@H](N)Cc2c[nH]cn2)[C@@H](C)O)[C@@H](C)O)C(=O)NC(Cc2ccc(-c3ccccc3F)cc2)C(N)=O)cc1 (single isomer, unassigned)", "unit.symbol": "%", "reported.result": 100}
{"molecule": "CCc1cc(OC)ccc1-c1ccc(CC(NC(=O)[C@H](CC(=O)O)NC(=O)[C@H](CO)NC(=O)[C@@H](NC(=O)C(C)(Cc2ccccc2F)NC(=O)[C@@H](NC(=O)CNC(=O)[C@H](CCC(N)=O)NC(=O)[C@H](C)NC(=O)[C@@H](N)Cc2c[nH]cn2)[C@@H](C)O)[C@@H](C)O)C(=O)NC(Cc2ccc(-c3ccccc3F)cc2)C(N)=O)cc1 (single isomer, unassigned)", "unit.symbol": "%", "reported.result": 41}

response.value for CCc1cc(OC)ccc1-c1ccc(CC(NC(=O)[C@H](CC(=O)O)NC(=O)[C@H](CO)NC(=O)[C@@H](NC(=O)C(C)(Cc2ccccc2F)NC(=O)[C@@H](NC(=O)CNC(=O)[C@H](CCC(N)=O)NC(=O)C(C)(C)NC(=O)[C@@H](N)Cc2c[nH]cn2)[C@@H](C)O)[C@@H](C)O)C(=O)NC(Cc2ccc(-c3ccccc3C)cc2)C(N)=O)cc1 (single isomer, unassigned) (field: % degradation in 24 h when incubated with simulated intestinal fluid) = 00
